// provenance: ChEMBL document CHEMBL5058577

# Test system: U2OS
# procedure-summary: Multiplex assay against U2OS
# Assay type: toxicity, cell-based
# test-context: human, 12 h, 1 µM, compound concentration 1 uM, replicate 2
We begin with a simple list: items and their reported Population Normal (%).

{"compound": "O=C(CCCc1ccccc1)Nc1nc2ccccc2c(=O)s1", "target-under-test": "U2OS", "Population Normal (%)": 100}
{"compound": "COC[C@@H](c1ccc(C(F)(F)F)cc1)N1CCN(C2(C)CCN(C(=O)c3c(C)ncnc3C)CC2)C[C@@H]1C.O=C(O)/C=C\\C(=O)O [VICRIVIROC MALEATE]", "target-under-test": "U2OS", "Population Normal (%)": 97}
{"compound": "Cc1sc2c(c1C)C(c1ccc(Cl)cc1)=N[C@@H](CC(=O)NCCCCCCCCNC(=O)COc1cccc3c1C(=O)N(C1CCC(=O)NC1=O)C3=O)c1nnc(C)n1-2 (stereo partly drawn)", "target-under-test": "U2OS", "Population Normal (%)": 99}
